Target: mGlyT-1b (Mus musculus, UniProt P28571)
Construct: host or cells: Flp-in-CHO
Sequence (P28571 1-651 isoform P28571-2): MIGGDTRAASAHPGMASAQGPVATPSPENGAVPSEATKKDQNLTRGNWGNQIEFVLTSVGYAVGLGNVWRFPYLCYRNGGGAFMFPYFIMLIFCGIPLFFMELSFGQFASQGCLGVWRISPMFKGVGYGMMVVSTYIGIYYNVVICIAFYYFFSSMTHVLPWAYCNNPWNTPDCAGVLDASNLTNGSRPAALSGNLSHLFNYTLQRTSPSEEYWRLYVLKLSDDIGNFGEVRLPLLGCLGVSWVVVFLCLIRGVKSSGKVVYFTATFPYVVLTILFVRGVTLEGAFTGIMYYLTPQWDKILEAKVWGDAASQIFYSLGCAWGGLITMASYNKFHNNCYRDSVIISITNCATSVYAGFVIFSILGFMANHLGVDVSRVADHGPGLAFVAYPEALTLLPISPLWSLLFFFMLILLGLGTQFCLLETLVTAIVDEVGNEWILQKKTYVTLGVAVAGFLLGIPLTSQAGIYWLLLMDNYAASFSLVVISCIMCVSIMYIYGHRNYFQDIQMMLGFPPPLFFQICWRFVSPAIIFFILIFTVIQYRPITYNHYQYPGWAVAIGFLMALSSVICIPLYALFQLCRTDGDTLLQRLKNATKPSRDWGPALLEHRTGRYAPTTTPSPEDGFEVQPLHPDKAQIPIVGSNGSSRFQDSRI
Assay: Glycine uptake inhibition assay (mGlyT-1b)
Type: cell-based
Details: [3H]-glycine uptake in Flp-in-CHO cells transfected with mGlyT-1b cDNA; read-out: IC50 (μM) at GlyT-1
experimental_endpoint: IC50 (µM)

Check out these entries, answers already filled in.
>  <compound>
O=C1N=C(NCc2ccccc2)C(c2ccccc2)N1c1ccc(Cl)cc1 (racemic)

>  <IC50, µM>
0.062

$$$$
>  <compound>
Cc1ccc(C2C(NCc3ccccc3)=NC(=O)N2c2ccc(Cl)c(Cl)c2)cc1C (racemic)

>  <IC50, µM>
0.057

$$$$

P. CCCCCCNC1=NC(=O)N(c2ccc(Cl)c(Cl)c2)C1c1ccccc1 (racemic)
Q. O=C1N=C(NCC2CCCCC2)C(c2ccccc2)N1c1ccc(Cl)c(Cl)c1 (racemic)
INPUT: Among P and Q , whose measured IC50 is the smaller figure? Reply with the label of the item you choose.
OUTPUT: Q

====

Molecular target: mGlyT-1b (Mus musculus)
Construct: host or cells: Flp-in-CHO
Experiment: Glycine uptake inhibition assay (mGlyT-1b)
Type: cell-based
Conditions: [3H]-glycine uptake in Flp-in-CHO cells transfected with mGlyT-1b cDNA; read-out: IC50 (μM) at GlyT-1
Description: DMEM complete medium: Nutrient mixture F-12 (Gibco Life-technologies), fetal bovine serum (FBS) 5%, (Gibco life technologies), Penicillin/Streptomycin1% (Gibco life technologies), Hygromycin 0.6 mg/ml (Gibco life technologies), Glutamine 1 mM Gibco life technologies) Uptake buffer (UB): 150 mM NaCl, 10 mM Hepes-Tris, pH 7.4, 1 mM CaCl2, 2.5 mM KCl, 2.5 mM MgSO4, 10 mM (+) D-glucose. Flp-in™-CHO (Invitrogen Cat n° R758-07) cells stably transfected with mGlyT1b cDNA. […]
experimental_endpoint: IC50 (µM)

Worked examples follow.
>  <compound>
O=C1N=C(NCc2ccccc2)C(c2ccccc2)N1c1ccc(Cl)c(Cl)c1 (racemic) [Example 13]

>  <units_of_measure>
µM

>  <IC50>
0.076

$$$$
>  <compound>
O=C1N=C(NCc2ccccc2)C(c2ccc(Cl)cc2)N1c1ccc(Cl)c(Cl)c1 (racemic) [Example 28]

>  <units_of_measure>
µM

>  <IC50>
0.035

$$$$

I. O=C1N=C(NCc2ccccc2)C(c2ccc(F)cc2)N1c1ccc(F)c(Cl)c1 (racemic) [Example 44]
II. O=C1N=C(NCc2ccccc2)C(c2ccc(F)cc2)N1c1ccc(Cl)c(Cl)c1 (racemic) [Example 43]
III. O=C1N=C(NCc2ccc(F)cc2)C(c2ccccc2)N1c1ccc(Cl)c(Cl)c1 (racemic) [Example 51]
INPUT: Sort low-to-high on IC50, please. Give the order by naming the labels one after another as requested.
OUTPUT: III, II, I
(III: 0.007 µM, II: 0.03 µM, I: 0.058 µM)

1. Cc1ccc(C2C(NCc3ccccc3)=NC(=O)N2c2ccc(Cl)c(Cl)c2)cc1 (racemic) [Example 24]
2. O=C1N=C(NCc2ccccc2)[C@@H](c2ccccc2)N1c1ccc(Cl)cc1 (single isomer, unassigned) [Example 50]
INPUT: Given the listed records, identify the one among 1 and 2 with higher IC50. Select an item and report its label.
OUTPUT: 2
